Tested On: T1, Monomeric monkey CD48-mmH (monkey)
T1 construct: Soluble monkey CD48 with a myc-myc-hexa-histidine C-terminal tag; the whole entry is the construct; also called mfCD48-mmH
T1 chain: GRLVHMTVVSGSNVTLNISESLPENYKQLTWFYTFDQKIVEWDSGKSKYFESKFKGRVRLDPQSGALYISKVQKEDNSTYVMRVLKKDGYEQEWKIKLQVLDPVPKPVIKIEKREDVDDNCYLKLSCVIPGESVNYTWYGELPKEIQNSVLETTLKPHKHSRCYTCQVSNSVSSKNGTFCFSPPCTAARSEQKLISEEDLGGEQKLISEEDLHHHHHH
Test Name: SPR (Biacore), antibody captured by anti-Fc, CD48 in solution, 37 C
Measured Attribute: kon (M⁻¹ s⁻¹)
The response must be a number in M⁻¹ s⁻¹ with no trailing unit.

# Binder, Measured Attribute, Test Result
measured = [
    ("H4H1763N (antibody, V domains shown, Human IgG4 Fc (H4H)) VH: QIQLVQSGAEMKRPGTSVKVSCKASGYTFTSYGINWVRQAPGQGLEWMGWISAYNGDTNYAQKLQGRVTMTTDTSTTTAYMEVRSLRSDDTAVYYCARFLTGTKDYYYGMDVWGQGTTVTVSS VL: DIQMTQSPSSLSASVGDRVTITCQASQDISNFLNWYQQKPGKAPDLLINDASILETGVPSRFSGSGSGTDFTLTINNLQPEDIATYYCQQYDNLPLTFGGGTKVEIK", "kon", 534000),
]

Find the recorded kon belonging to H4H1778P (antibody, human IgG4, V domains shown, Human IgG4 Fc (H4H)) VH: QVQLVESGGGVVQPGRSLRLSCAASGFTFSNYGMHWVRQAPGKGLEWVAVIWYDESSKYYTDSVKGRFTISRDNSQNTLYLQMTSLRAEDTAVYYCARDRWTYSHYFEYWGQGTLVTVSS VL: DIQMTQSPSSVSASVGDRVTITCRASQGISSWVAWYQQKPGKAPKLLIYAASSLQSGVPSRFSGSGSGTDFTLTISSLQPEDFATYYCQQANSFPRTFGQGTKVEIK and report it.
189000
